Let's look at some molecules and their measured pIC50.
# Test system: BXPC-3
# Assay Overview: Cytotoxicity against human BxPC3 cells after 72 hrs by MTT assay
# Assay type: functional, cell-based
# Details: BXPC-3, 72 h
pIC50: −log10 of the molar value.
Experimental Readout: pIC50

* COc1ccc([C@@H](CC(=O)N[C@@H](CC(C)C)B(O)O)NC(=O)c2ccccc2)cc1 | 6.42
* COc1ccc([C@H](CC(=O)N[C@@H](CC(C)C)B(O)O)NC(=O)c2ccccc2)cc1 | 5.55
* CC(C)C[C@H](NC(=O)[C@H](Cc1ccccc1)NC(=O)c1cnccn1)B(O)O [BORTEZOMIB] | 7.79
* COc1ccc(C(CC(=O)N[C@@H](CC(C)C)B(O)O)NC(=O)c2ccccc2)cc1 (some centres undefined) | 5.82

----------
# Assay Overview: Systemic clearance in Sprague-Dawley rat at 1 mg/kg, ig
# Type: ADME, organism-based
# Parameters: dose 1 mg/kg, route intragastric
# Details: in vivo, po
Experimental Readout: CL/F (mL/min/kg)

• CC(C)C[C@H](NC(=O)[C@H](Cc1ccccc1)NC(=O)c1cnccn1)B(O)O = 44.7
